# condition_label: 308.15 K; 101.33 kPa; Liquid
± gives the expanded uncertainty stated by the source.
result_type: mass density
The answer consists of two parts: a number and, after it, its unit.

1. [2H]OCCCCC    810.47 ± 1.7 kg/m3
2. C[N+](=O)[O-]    1116.54 ± 1.2 kg/m3
3. CCCCCO    803.71 ± 1.8 kg/m3

IN: Record request: mass density value, item [2H]C([2H])([2H])[N+](=O)[O-]
OUT: 1173.28 ± 1.6 kg/m3

---

Give measured mass density for each item. Keep answers brief.
# condition_label: 303.15 K; 101.33 kPa; Liquid
One number for each entry, in kg/m3.

Reference set (3 entries):
1) CCCCCO    807.41
2) [2H]C([2H])([2H])[N+](=O)[O-]    1181.86
3) [2H]OCCCCC    814.24

Turning to the following molecule.
IN: Record request: mass density value, item C[N+](=O)[O-]
OUT: 1123.49

---

# condition_label: 293.15 K; 101.33 kPa; Liquid
Numbers after ± are expanded uncertainties.
result_type: mass density
The answer consists of two parts: a number and, after it, its unit.

1) [2H]OCCCCC [pentan-1-ol-d]    821.69 ± 1.6 kg/m3

For every item below, please supply its mass density.
1. C[N+](=O)[O-] [nitromethane]
2. [2H]C([2H])([2H])[N+](=O)[O-] [deuteronitromethane]
3. CCCCCO [pentan-1-ol]

OUT:
1. 1137.21 ± 1.4 kg/m3
2. 1194.74 ± 1.7 kg/m3
3. 815.09 ± 1.7 kg/m3

---

# condition_label: 300.15 K; 101.33 kPa; Liquid
Give measured mass density for each item. Keep answers brief.
Numbers only, in kg/m3.

Reference set (3 entries):
1. [2H]C([2H])([2H])[N+](=O)[O-] [deuteronitromethane]    1184.73
2. CCCCCO [pentan-1-ol]    809.72
3. C[N+](=O)[O-] [nitromethane]    1127.55

Turning to the following molecule.
IN: Record request: mass density value, item [2H]OCCCCC [pentan-1-ol-d]
OUT: 816.42

---

# condition_label: 303.15 K; 101.33 kPa; Liquid; acoustic time of flight gauge
± gives the expanded uncertainty stated by the source.
Give measured speed of sound for each item. Keep answers brief.

Reference set (3 entries):
1) [2H]C([2H])([2H])[N+](=O)[O-] [deuteronitromethane]    1251.4 ± 2 m/s
2) C[N+](=O)[O-] [nitromethane]    1297.3 ± 2 m/s
3) [2H]OCCCCC [pentan-1-ol-d]    1248.5 ± 2 m/s

Turning to the following compound.
IN: Record request: speed of sound value, item CCCCCO [pentan-1-ol]
OUT: 1256.4 ± 2 m/s

---

# condition_label: 298.15 K; 101.33 kPa; Liquid; acoustic time of flight gauge
Give measured speed of sound for each item. Keep answers brief.
Answers are plain numbers, in m/s.

1. [2H]OCCCCC    1265.1
2. [2H]C([2H])([2H])[N+](=O)[O-]    1271.3
3. C[N+](=O)[O-]    1317.4

Turning to the following compound.
IN: Record request: speed of sound value, item CCCCCO
OUT: 1273.6

All figures here come from the NIST ThermoML archive (doi:10.1021/je0500734).
